test: yeast display, Sf9 membrane polyspecificity reagent, FACS + sequencing; frameworks hold sequencing errors
measured.parameter: polyreactivity (PSR sort gate)

Known results for sequences:
INSERT INTO assay_data (ordered_residues, measured_parameter, result) VALUES
  ('QVQLVESGGGLVQAGGSLRLSCAASGLIFYRYTMGWYRQAPGKERELVAAITRSGSTYYADSVKGRFTISRDNAKNTVYLQMNSLKPEDTAVYYCAADVTLYYRGRRYYYWGQGTQVTVSS', 'polyreactivity (PSR sort gate)', 'high polyreactivity'),
  ('QVQLVESGGGLVQAGGSLRVSCAASGSTFYIYAMGWSRQAPGKERELVARISGSGGSTYYADSVKGRFTISRDYAKNTVYLLMNSLKPEDTAVYYCAADDIYKYYQYYAFPYSRYDYWGQGTQLTVSS', 'polyreactivity (PSR sort gate)', 'low polyreactivity'),
  ('QVQLVESGGGLVQAGGSLRLSCAASGGIFRYYALGWYRPAPGKERELVAASSRSGDSTYYADSVKGRFTISRDNAKNTVYLQMNSLKPEDTAVYYCAKDNDDVHLVHLDYNSDRYGYWGPGTQVTVSS', 'polyreactivity (PSR sort gate)', 'high polyreactivity'),
  ('QVQLVESGGGLVQAGGTLRLTCAASGRTFYRYVMGWYRHAPVKERELFAAINWSGGSTYYADSVKGRFTISRDNAKNTVYLQMNSLKPEDTAVYYCAADLYTLRYGYRYEYWGQGTQVTVSS', 'polyreactivity (PSR sort gate)', 'high polyreactivity'),
  ('QVQLVESGGGLVQAGGSLRLSCAASGSIFSFYAMGWYRQAPGKEREFVAAITISDDSTYYADTVKGRFTISRDNAKNTVYLQMNSLNPEDTAVYYCNDRYLSWYFKYLYDYWGQGTQVTVSS', 'polyreactivity (PSR sort gate)', 'low polyreactivity'),
  ('QVQLVESGGGIVQAGGSLRLSCTASGFTFVYYAMGWYRQAPGKERELVASISRSGGSTYYADSVKGRFTISRDNAKNTVYLQMNSLKPEDTGVYYCNARYGRTALLDYWGQGTQVTVSS', 'polyreactivity (PSR sort gate)', 'high polyreactivity'),
  ('QVQLVESGGGLVQAGGSLRLSCAASGLIFYRYTMGWYRQAPGKERELVAAIDDSDTSTYYADSVKGRFTISRDNAKNTVYLQMNSLKPEDTAVYYCAAVPLAPYAVRSRLDFDYWGQGTQVTVSS', 'polyreactivity (PSR sort gate)', 'low polyreactivity'),
  ('QVQLVESGGGLVQAGGSLRLSCAASGFTFYRYAMGWYRQAPGKERELVAAITRTGGSTYYADSVKGRFTISRDNAKNTVYLQMNSLKPEDTAVYYCAARVHGTGTLKYPNYYWGQGTQVTVSS', 'polyreactivity (PSR sort gate)', 'high polyreactivity'),
  ('QVQLVESGVGLVQAGGSLRLSCAASGSTFYRYAMGWYRQAPGKERELVAAIRGSGGRTYYADSVKGRFTISRDNAKNTVYLQMNSLKPEDTAVYYCAAYRGVSQKGDYWGQGTQVTVSS', 'polyreactivity (PSR sort gate)', 'high polyreactivity'),
  ('QVQLVESGGGLVQAGGSLRLSCAASGSTFWYYAMGWYRQAPGKEREFVAAITTSAGRTYYADSVKGRFTISRDNAKNSVYLQMNSLKPEDTAVYYCAAEPRQYWEYNYWGQGTQVTVSS', 'polyreactivity (PSR sort gate)', 'high polyreactivity');

Attention now shifts to the item below.
Asked: Query: polyreactivity (PSR sort gate); subject: QVQLVESGGRLVQAGGSLRLSCAASGYTFGSYPMGWYRQAPGNERELVAAISGGGSTNYADSVKGRFTISRDNAKNTVYLQMNSMKPEDTAVYYCAAYPYVYQLRVEEYDHWGQGTQVTVSS
Given back: low polyreactivity
